# ASSAY_PROCEDURE: Standard protocol for determination of kcat and KM (continuous spectrophotometric assay, Acetyl CoA hydrolysis at 235 nm)
# Format: biochemical
# SETUP_CONDITIONS: purified protein; about 23° C.; 20 mM HEPES pH 6.8, 10% ethylene glycol, 0.2 mM acetyl CoA
Threshold rule: Kcat greater than or equal to 1 s⁻¹ is Criterion met; below that, Criterion not met.

Consider the worked cases shown below.
SEQ ID NO: 505: GAT polypeptide (protein, 8_1G3, GAT polypeptide) MLEVKPINAEDTYELRHKILRPNQPIEVCMYETDLLRGAFHLGGYYRGKLISIASFHQAEHSELQGQKQYQLRGMATLEGYREQKAGSSLIRHAEEILRKRGADLLWCNARTSASGYYKKLGFSEQGEIFDTPPVGPHILMYKRIT: Criterion met
SEQ ID NO: 455: GAT polypeptide (protein, 10_4F9, GAT polypeptide) MIEVKPINAEDTYELRHRILRPNQPIEVCMYETDLLRGAFHLGGFYRGKLISIASFHQAEHSELQGQKQYQLRGMATLEGFREQKAGSSLIRHAEQILRKRGADLLWCNARTSASGYYKKLGFSEQGEIFDTPPVGPHILMYKRLT: Criterion not met
SEQ ID NO: 293: GAT polypeptide (protein, 12_6H6, GAT polypeptide) MIEVKPINAEDTYEIRHRILRPNQPLEACKYETDLLGGTFHLGGYYRGKLVSIASFHQAEHPELEGQKQYQLRGMATLEGYREQKAGSTLIRHAEALLRKKGADLLWCNARTSASGYYKKLGFSEQGEVYDIPPTGPHILMYKKLT: Criterion met
SEQ ID NO: 434: GAT polypeptide (protein, 9_8H1, GAT polypeptide) MIEVKPITAEDTYEIRHRILRPNQPLEACKYETDLLGGTFHLGGYYRGKLISIASFHQAEHPELEGQKQYQLRGMATLEGYREQKAGSTLIRHAEELLRKKGADLLWCNARTSASGYYKKLGFSEQGEVYDIPPTGPHILMYKKLT: Criterion met

Kindly determine if Kcat recorded for SEQ ID NO: 392: GAT polypeptide (protein, 6_20A7, GAT polypeptide) MIEVKPINAEDTYEIRHRILRPNQPLEACMYETDLLRGTFHLGGYYRGKLISIASFHQAEHSDLEGQKQYQLRGMATLEEYREQKAGSTLIRHAEELLRKKGADLLWCNARTSASGYYKKLGFSEQGEVYDIPPVGPHILMYKKLT is above or exactly 1 s⁻¹.
Criterion not met

Reported Kcat at or above 1 s⁻¹? SEQ ID NO: 277: GAT polypeptide (protein, 10_2B8, GAT polypeptide) MIEVKPINAEDTYEIRHRILRPNQPLEACKYETDLLGGTFHLGGYYRGKLISIASFHQAEHPELEGQKQYQLRGMATLEEYREQKAGSTLIRHAEELLRKKGADLLWCNARTSASGYYKKLGFSEQGEVYDTPPVGPHILMYKKLT
Criterion met
